// provenance: a melting point compilation (Tetko et al.; mined from patent text by program, amines drawn as free bases though some values may be those of a salt)

This listing pairs compounds with measured melting point.

Example cases with answers are listed next.
compound: COc1nc(OC)nc(-n2cnc(SC)n2)n1
melting point: 160 °C
//
compound: C#CCN(C(=O)C(Cl)Cl)C(C)C
melting point: 58 to 59 °C
//
compound: CC(O)c1ccc2c(c1)ncn2-c1cccc(-c2cccnc2O)c1 (stereo not drawn)
melting point: 133 to 137 °C
//
compound: CC1(C)OC(=O)Nc2c(Br)cc(-c3cc(F)cc(C#N)c3)cc21
melting point: 216 to 217 °C
//
compound: O=C(O)c1cc(F)c(F)c(C(F)(F)F)c1F
melting point: 87 to 90 °C

Ask: Would you mind telling me what melting point value was observed for O=C(Nc1ccc(C2=CCN(C(=O)Nc3ccc(OCCO)cc3C(F)(F)F)CC2)cc1)Nc1ccccc1F ?
Result: 110 to 112 °C

Ask: Endpoint output: melting point of CCOC(=O)c1cnn2c1c(OCCCN(C)C)nc1ccccc12 . Value?
Result: 78 to 81 °C

Ask: Value lookup for melting point; key = CCCCCS(=O)(=O)NC(=O)/C=C/c1ccc(C)n1Cc1ccc(Cl)cc1Cl
Result: 189 to 190 °C
